Values from patent US10391070B2

Tested on: HT22 cells
Experiment: In vitro neurotoxicity without glutamate (MTS cell viability)
Type: cell-based, mouse
Conditions: HT22 cells without glutamate, 24 hrs, MTS; concentration producing 50% toxicity; read-out: Toxicity TC50
# CC50 per entry
Numbers only here, please. The scale is µM.

# example entries with known answers
Kindly note: HT22 cells, O=C1C=C(NC2CCCC2)C(=O)c2ccccc21 , CC50 value reported: 44

CC50 value, target or system HT22 cells, for O=C1C=C(Nc2ccccc2)C(=O)c2ccccc21 : 7

Measured on HT22 cells, CC1=CC(=O)c2ccccc2C1=O [VK3, menadione, reference compound] has a documented CC50 of 19

# lookup: O=C1C=C(NCc2cccnc2)C(=O)c2ccccc21 on HT22 cells, CC50 = 37

So the reported CC50 for NC1=CC(=O)c2ccccc2C1=O , on HT22 cells, turned out to be 49

Could you now look at the following molecule, please?
# value of CC50, HT22 cells, item CC1=C(N)C(=O)c2ccccc2C1=O = 54
